The reported numbers originate from patent US11377444B2.

Exercise: state measured AUC(0-t) for each of the compounds provided.
# Experiment description: Pharmacokinetic evaluation in plasma after IV and PO administration
# Assay type: in vivo
# Details: mouse, female Balb/c mice, PO 2 mg/kg
Numbers only, in µM·h.

Worked set:
| Compound | AUC(0-t) / µM·h |
| --- | --- |
| CNC(=O)c1cccc(-c2ccc3c(N4CCOC[C@@H]4C)nc(N4CCOC[C@@H]4C)nc3n2)c1 [AZD2014, reference compound] | 8.24 |
| CNC(=O)c1cc(-c2ccc3c(N4CCOC[C@@H]4C)nc(N4CCOC5(CC5)C4)nc3n2)ccc1OC | 16.3 |

Now take the following compound into account.
query: State its AUC(0-t) for this compound: "C[C@H]1COC2(CCC2)CN1c1nc(N2CCOC[C@@H]2C)c2ccc(-c3cccc(C(N)=O)c3)nc2n1"
result: 8.59

----------
# Experiment description: Pharmacokinetic evaluation in plasma after IV and PO administration
# Assay type: in vivo
# Details: mouse, female Balb/c mice, PO 2 mg/kg
Property name: Tmax
Answer with the number, then the unit.

| Molecule | Tmax |
| --- | --- |
| CNC(=O)c1cccc(-c2ccc3c(N4CCOC[C@@H]4C)nc(N4CCOC[C@@H]4C)nc3n2)c1 [AZD2014, reference compound] | 30 min |
| CNC(=O)c1cc(-c2ccc3c(N4CCOC[C@@H]4C)nc(N4CCOC5(CC5)C4)nc3n2)ccc1OC | 30 min |

Proceeding to the next molecule to report its Tmax.
query: Supply measured Tmax of "C[C@H]1COC2(CCC2)CN1c1nc(N2CCOC[C@@H]2C)c2ccc(-c3cccc(C(N)=O)c3)nc2n1" in your reply.
result: 15 min

----------
# Experiment description: Pharmacokinetic evaluation in plasma after IV and PO administration
# Type: in vivo
# Details: mouse, female Balb/c mice, IV 2 mg/kg
Kindly state C0 for each of the entries shown.
Numbers only, in µM.

| Compound | Value unit | Reported |
| --- | --- | --- |
| CNC(=O)c1cccc(-c2ccc3c(N4CCOC[C@@H]4C)nc(N4CCOC[C@@H]4C)nc3n2)c1 [AZD2014, reference compound] | µM | 8.07 |
| CNC(=O)c1cccc(-c2ccc3c(N4CCOC[C@@H]4C)nc(N4CCOC5(CC5)C4)nc3n2)c1 | µM | 7.2 |

For every item in the list below, what is its measured C0?
1. C[C@H]1COCCN1c1nc(N2CCOC3(CC3)C2)nc2nc(-c3cccc(C(N)=O)c3)ccc12
2. CNC(=O)c1cccc(-c2ccc3c(N4CCOC[C@@H]4C)nc(N4CCOC5(CCC5)C4)nc3n2)c1

result:
8.24
12.2

----------
# Experiment description: Pharmacokinetic evaluation in plasma after IV and PO administration
# Type: in vivo
# Details: mouse, female Balb/c mice, PO 10 mg/kg
# Method: Experimental Embodiment 3: Pharmacokinetic Evaluation […] Female Balb/c mice of 18 to 20 grams were selected, and the solution of the test compound was orally administered at a dose of 2 or 10 mg/kg. […] The drug concentration was analyzed by LC-MS/MS, and the pharmacokinetic parameters were calculated using Phoenix WinNonlin software (Pharsight Corporation, USA).
Property name: Cmax
Include the unit right after the number.

Hi team, please reply with Cmax for each item in this list.
1. C[C@H]1COCCN1c1nc(N2CCOC3(CC3)C2)nc2nc(-c3cccc(C(N)=O)c3)ccc12
2. CNC(=O)c1cccc(-c2ccc3c(N4CCOC[C@@H]4C)nc(N4CCOC[C@@H]4C)nc3n2)c1 [AZD2014, reference compound]
3. CNC(=O)c1cccc(-c2ccc3c(N4CCOC[C@@H]4C)nc(N4CCOC5(CCC5)C4)nc3n2)c1
4. CNC(=O)c1cccc(-c2ccc3c(N4CCOC[C@@H]4C)nc(N4CCOC5(CC5)C4)nc3n2)c1

result:
["12.8 µM", "17 µM", "27.9 µM", "15.1 µM"]
